TESTED SYSTEM: Cystine/glutamate transporter (Homo sapiens)
Sequence (whole entry): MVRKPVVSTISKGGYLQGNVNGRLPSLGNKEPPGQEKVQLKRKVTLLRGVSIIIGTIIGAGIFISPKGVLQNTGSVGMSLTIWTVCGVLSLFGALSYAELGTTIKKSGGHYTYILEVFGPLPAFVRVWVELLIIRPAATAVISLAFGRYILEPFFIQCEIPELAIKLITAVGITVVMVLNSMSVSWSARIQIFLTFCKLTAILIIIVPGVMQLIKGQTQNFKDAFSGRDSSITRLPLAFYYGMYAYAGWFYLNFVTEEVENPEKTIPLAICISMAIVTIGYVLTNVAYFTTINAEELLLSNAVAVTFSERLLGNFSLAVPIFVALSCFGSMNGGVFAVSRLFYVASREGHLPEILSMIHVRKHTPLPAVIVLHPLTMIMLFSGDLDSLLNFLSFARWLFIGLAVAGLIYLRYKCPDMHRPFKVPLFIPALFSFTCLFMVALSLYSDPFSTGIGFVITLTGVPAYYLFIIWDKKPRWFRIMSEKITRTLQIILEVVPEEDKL
ASSAY: Inhibition of amino acid transport system xc- in human SNB19 cells assessed as [3H]L-glutamate uptake at 500 uM after 24 hrs by liquid scintillation counting
Assay type: cell-based
CONDITION PARAMETERS: SNB-19
REPORTED METRIC: Drug uptake (%)
Report only the number, with the unit % understood.

Reference set, count: 3
Cc1cc(C(N)C(=O)O)sc1C (stereo not drawn)
73
N[C@H](Cc1ccc(S(=O)(=O)O)cc1)C(=O)O
101
NC(C(=O)O)c1ccc(-c2ccc(C(=O)O)cc2)cc1 (stereo not drawn)
27

So what does the record say about Drug uptake for `Cc1csc(C(=O)O)c1N` ?
83

So what does the record say about Drug uptake for NC(Cc1ccc(Br)cc1S(=O)(=O)O)C(=O)O (stereo not drawn) ?
83

So what does the record say about Drug uptake for NC(C(=O)O)c1ccc(S(=O)(=O)O)s1 (stereo not drawn) ?
26

So what does the record say about Drug uptake for `N[C@H](C(=O)O)c1ccc(S(=O)(=O)O)s1` ?
32

So what does the record say about Drug uptake for NC(C(=O)O)c1csc2ccccc12 (stereo not drawn) ?
53

So what does the record say about Drug uptake for CC(N)(Cc1ccc(S(=O)(=O)O)cc1)C(=O)O (stereo not drawn) ?
106

So what does the record say about Drug uptake for NC(C(=O)O)c1ccc(-c2cccs2)s1 (stereo not drawn) ?
69

So what does the record say about Drug uptake for `N[C@H](C(=O)O)c1ccc(S(=O)(=O)O)cc1` ?
55

So what does the record say about Drug uptake for `N[C@@H](C(=O)O)c1ccc(S(=O)(=O)O)s1` ?
55

So what does the record say about Drug uptake for NC(C(=O)O)c1c[nH]cn1 (stereo not drawn) ?
96

---

TESTED SYSTEM: Cystine/glutamate transporter (Homo sapiens, UniProt Q9UPY5)
REPORTED METRIC: IC50 (µM)
Report only the number, with the unit µM understood.

Reference set, count: 3
N[C@H](C(=O)O)c1ccc(C(=O)O)cc1
5
N[C@@H](Cn1oc(=O)[nH]c1=O)C(=O)O [QUISQUALATE]
5
N[C@@H](COS(=O)(=O)O)C(=O)O
26

// moving on: another record for IC50
Report IC50 for `N[C@@H](CCS(=O)(=O)O)C(=O)O` tested on Cystine/glutamate transporter (Homo sapiens, UniProt Q9UPY5).
35

---

Known Drug uptake of a selection of compounds
Species: Rattus norvegicus
ASSAY: Inhibition of VGLUT in rat brain synaptic vesicles assessed as [3H]L-glutamate uptake at 5 mM after 24 hrs by liquid scintillation counting
Format: tissue-based
Report only the number, with the unit % understood.

NC(C(=O)O)c1ccc(S(=O)(=O)O)s1 (stereo not drawn)
81
N[C@@H](C(=O)O)c1ccc(S(=O)(=O)O)s1
104
N[C@H](C(=O)O)c1ccc(S(=O)(=O)O)cc1
105
N[C@H](C(=O)O)c1ccc(S(=O)(=O)O)s1
92
NC(C(=O)O)c1csc2ccccc12 (stereo not drawn)
31

So what does the record say about Drug uptake for `N[C@H](Cc1ccc(S(=O)(=O)O)cc1)C(=O)O` ?
102

So what does the record say about Drug uptake for CC(N)(Cc1ccc(S(=O)(=O)O)cc1)C(=O)O (stereo not drawn) ?
98

---

TESTED SYSTEM: Cystine/glutamate transporter (Homo sapiens) (UniProt Q9UPY5)
Sequence (whole entry): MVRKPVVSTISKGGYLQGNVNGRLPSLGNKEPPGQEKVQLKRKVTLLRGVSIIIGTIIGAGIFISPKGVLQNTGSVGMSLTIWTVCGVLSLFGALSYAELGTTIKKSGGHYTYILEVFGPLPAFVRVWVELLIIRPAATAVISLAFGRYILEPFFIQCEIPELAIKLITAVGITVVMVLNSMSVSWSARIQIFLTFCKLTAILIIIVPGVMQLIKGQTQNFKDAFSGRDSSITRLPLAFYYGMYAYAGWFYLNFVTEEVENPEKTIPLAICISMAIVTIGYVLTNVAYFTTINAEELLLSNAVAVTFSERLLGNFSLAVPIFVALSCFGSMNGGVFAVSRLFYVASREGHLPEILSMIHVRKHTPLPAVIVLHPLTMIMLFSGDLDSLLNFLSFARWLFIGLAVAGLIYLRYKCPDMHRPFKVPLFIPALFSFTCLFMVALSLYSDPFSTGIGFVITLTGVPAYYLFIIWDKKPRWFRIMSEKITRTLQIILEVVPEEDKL
ASSAY: Inhibition of amino acid transport system xc- in human SNB19 cells assessed as [3H]L-glutamate uptake at 500 uM after 24 hrs by liquid scintillation counting
Format: cell-based
CONDITION PARAMETERS: SNB-19
REPORTED METRIC: Drug uptake (%)
Report only the number, with the unit % understood.

Reference set, count: 3
Cc1c(C(=O)O)sc(N)c1C(=O)O
57
N[C@@H](C(=O)O)c1ccc(S(=O)(=O)O)cc1
98
N[C@@H](Cc1ccc(S(=O)(=O)O)cc1)C(=O)O
90

Report Drug uptake for `N[C@@H](CS)C(=O)O` tested on Cystine/glutamate transporter (Homo sapiens) (UniProt Q9UPY5).
22

Report Drug uptake for NC(C(=O)O)c1ccc(Br)s1 (stereo not given) tested on Cystine/glutamate transporter (Homo sapiens) (UniProt Q9UPY5).
83

---

Species: Rattus norvegicus
ASSAY: Inhibition of VGLUT in rat brain synaptic vesicles assessed as [3H]L-glutamate uptake at 5 mM after 24 hrs by liquid scintillation counting
Assay type: tissue-based
REPORTED METRIC: Drug uptake
Returns: string containing the numeric result and its unit.

NC(C(=O)O)c1ccc(Br)s1 (stereo unspecified)
37%
NC(Cc1ccc(Br)cc1S(=O)(=O)O)C(=O)O (stereo unspecified)
77%
NC(C(=O)O)c1ccc(-c2ccc(C(=O)O)cc2)cc1 (stereo unspecified)
75%
N[C@@H](C(=O)O)c1ccc(S(=O)(=O)O)cc1
108%

So what does the record say about Drug uptake for `N[C@@H](Cc1ccc(S(=O)(=O)O)cc1)C(=O)O` ?
131%

So what does the record say about Drug uptake for `Cc1c(C(=O)O)sc(N)c1C(=O)O` ?
44%

So what does the record say about Drug uptake for `Nc1c(/N=N/c2ccc(-c3ccc(/N=N/c4cc(S(=O)(=O)O)c5ccccc5c4N)cc3)cc2)cc(S(=O)(=O)O)c2ccccc12` ?
31%

So what does the record say about Drug uptake for `Cc1csc(C(=O)O)c1N` ?
91%

So what does the record say about Drug uptake for NC(C(=O)O)c1c[nH]cn1 (stereo unspecified) ?
95%

So what does the record say about Drug uptake for NC(C(=O)O)c1ccc(-c2cccs2)s1 (stereo unspecified) ?
53%

So what does the record say about Drug uptake for Cc1cc(C(N)C(=O)O)sc1C (stereo unspecified) ?
57%
